B1: KIAA0774 (parent)
chain: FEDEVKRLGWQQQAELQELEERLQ

variants of: B1; experiment: protein stability index of a GFP-peptide fusion (GPS, HEK-293T) (PSI 1-6); higher = more stable; details: c terminus: a fixed tail appended;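 also: lentivirally expressed fusions sorted by FACS into six bins by GFP to DsRed ratio, PSI derived from sequencing read proportions per bin multiplied by bin number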
I'd be grateful if you could share measured protein stability index for these entries.
One number for each entry.

{"columns": ["mutation_name", "readout_kind", "endpoint_value"],
 "data": [
  ["E2I", "protein stability index", 3.12]
]}

Hi! Can you tell me protein stability index for each of these variants?
1. K6V
2. R7M
3. E18K
4. Q11F
5. L23C
6. D3V

**Result**
1: 4.52; 2: 4.41; 3: 4.41; 4: 3.73; 5: 4.14; 6: 2.76
